Reference for the values: the supplement of paper PMC7411054

System: A549-ACTB-RAB5A
Experiment: phenotypically active (imaging signature differs from DMSO and reproducible) at any of 0.3-9 uM (binary (1 = active, 0 = inactive)); higher = active
Details: treatment time: 24 h
Counter-ions that a name gives are not always drawn.
// allowed return values: TRUE = active, FALSE = inactive

compound=Cc1cn(CCN2CCN(c3ccccc3-c3cc(C#N)cc(C(=O)NCCCN4CCCC4)c3)CC2)c2ccccc12 assigned_category=TRUE

Problem: # lookup: test call for COC(=O)C1=CO[C@@H](C)[C@H]2CN3CCc4c([nH]c5ccccc45)[C@@H]3C[C@H]12 [Ajmalicine hydrochloride]
Solution: FALSE

Problem: # lookup: test call for CCCc1cc(C)n(C)c(=O)c1CN(C)C(=O)c1cc(-c2ccc(N3CCN(C(C)C)CC3)nc2)cc2c1cnn2C(C)C
Solution: TRUE

Problem: # lookup: test call for C=C1CC[C@H](O)C/C1=C\C=C1\CCC[C@]2(C)[C@@H]([C@H](C)/C=C/[C@H](C)C(C)C)CC[C@@H]12 [Calciferol]
Solution: FALSE
